Below, each entry is listed with its recorded IC50, p44.
# assayed-system: vascular endothelial growth factor (VEGF) (UniProt P15692-4 27-191, limits assumed)
# Sequence (P15692 other isoform, or with tags, fused parts or gaps limits assumed): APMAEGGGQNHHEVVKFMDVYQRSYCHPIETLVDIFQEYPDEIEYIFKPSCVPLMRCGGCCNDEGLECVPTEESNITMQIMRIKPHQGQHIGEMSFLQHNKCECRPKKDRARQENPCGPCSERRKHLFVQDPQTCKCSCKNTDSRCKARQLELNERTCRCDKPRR
# protocol-notes: cell-based or functional assay
Positions of bridges follow the written chain, without caps; N, C: chain ends. Non-standard residues stand in square brackets, D forms with d.
measure: IC50, p44

[[record]]
binder = "GDDD (designed binder, linker N-C via 3‑aminomethyl‑5‑aminobenzamide; also: four loops on But-Calix calix[4]arene scaffold) [GFB-106]"
recorded_measurement = "< 10 µM"

[[record]]
binder = "GFGD (designed binder, linker N-C via 3‑aminomethyl‑5‑aminobenzamide; also: four loops on O4-Calix calix[4]arene scaffold) [GFB-101]"
recorded_measurement = "> 100 µM"

[[record]]
binder = "GDFD (designed binder, linker N-C via 3‑aminomethyl‑5‑aminobenzamide; also: four loops on But-Calix calix[4]arene scaffold) [GFB-105]"
recorded_measurement = "> 100 µM"

[[record]]
binder = "ADGD (designed binder, linker N-C via 3‑aminomethyl‑5‑aminobenzamide; also: four loops on But-Calix calix[4]arene scaffold) [GFB-112]"
recorded_measurement = "10 µM"

[[record]]
binder = "GDGD (designed binder, linker N-C via 3‑aminomethyl‑5‑aminobenzamide; also: four loops on But-Calix calix[4]arene scaffold) [GFB-107]"
recorded_measurement = "100 µM"

[[record]]
binder = "GDFD (designed binder, linker N-C via 3‑aminomethyl‑5‑aminobenzamide; also: four loops on O4-Calix calix[4]arene scaffold) [GFB-102]"
recorded_measurement = "> 100 µM"

[[record]]
binder = "GKGK (designed binder, linker N-C via 3‑aminomethyl‑5‑aminobenzamide; also: four loops on But-Calix scaffold) [GFB-116]"
recorded_measurement = "5 µM"

[[record]]
binder = "GDSD (designed binder, linker N-C via 3‑aminomethyl‑5‑aminobenzamide; also: four loops on But-Calix calix[4]arene scaffold) [GFB-113]"
recorded_measurement = "10 µM"

[[record]]
binder = "[dA]DGD (designed binder, linker N-C via 3‑aminomethyl‑5‑aminobenzamide; also: four loops on But-Calix calix[4]arene scaffold) [GFB-108]"
recorded_measurement = "50 µM"

